Taken from patent US20220396626A1.

Readings of kon for the listed binders
test-target: T1, human CLL1 ECD-His (human CLL1 extracellular domain with His tag) (human, UniProt Q5QGZ9 65-265)
T1 construct: also called antigen human CLL1 ECD-His; antigen CLL1; not shown: His tag
T1 sequence: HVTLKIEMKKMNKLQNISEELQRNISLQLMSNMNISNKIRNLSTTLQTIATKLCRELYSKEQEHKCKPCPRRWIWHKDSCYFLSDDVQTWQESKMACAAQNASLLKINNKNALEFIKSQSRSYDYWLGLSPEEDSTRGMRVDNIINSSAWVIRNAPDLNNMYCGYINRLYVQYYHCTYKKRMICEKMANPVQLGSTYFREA
protocol-summary: BLI (ForteBio), antibody on AHC sensor, 100 nM human CLL1 ECD-His, 1:1 model
Method: In short, the antibody was loaded on the anti-human IgG capture (AHC) biosensor, the sensor was equilibrated in the assay buffer for 30 min offline, and monitored online for 60 s to establish the baseline; the antibody-loaded sensor was incubated with the 100 nM antigen human CLL1 ECD-His for 5 min, then transferred to the assay buffer, and the dissociation rate was measured after 5 min; the kinetic analysis was carried out using a 1:1 combination model.
Output spec: scalar in M⁻¹ s⁻¹, unitless text.

Below, 3 binders whose answers are already recorded.
chimeric antibody ch19C1 (antibody, V domains shown) VH: QVQLQQSGAELMKPGASVKISCKATGYTFSSYWIEWVKQRPGHGLEWIGEIFPGSGSIKYNEKFKGKATFTADTSSNTAYMQLSSLTSEDSAVHYCARGGTYNDYSLFDYWGQGTTLTVSS VL: QIVLTQSPAIMSASPGEKVTMTCSASSSVSYMYWYQQKPGSSPRLLIFDTSNLASGVPVRFSGSGSGTSYSLTISRMEAEDAATYYCQQWSSYPLTFGAGTKLELK ... 180000
anti-human CLL-1 control antibody 1075.7 (antibody, it was captured by anti-human IgG sensors and detected with anti-human IgG-Fc, so a human Fc was present; also called ch1075.7) scFv: ENVLTQSPAIMSASPGEKVTMTCRASSNVISSYVHWYQQRSGASPKLWIYSTSNLASGVPARFSGSGSGTSYSLTISSVEAEDAATYYCQQYSGYPLTFGAGTKLELGGGGSGGGGSGGGGSDIQLQESGPGLVKPSQSLSLTCSVTGYSITSAYYWNWIRQFPGNKLEWMGYISYDGRNNYNPSLKNRISITRDTSKNQFFLKLNSVTTEDTATYYCAKEGDYDVGNYYAMDYWGQGTSVTVSS ... 108000
chimeric antibody ch27H4 (antibody, V domains shown, also called parent antibody) VH: EVQLQQSGPELVKPGASVKISCKASGYSFTGYHMHWVKQSHVKSLEWIGRINPYNGAASHNQKFKDKATLTVDKSSSTAYMELHSLTSEDSAVYYCARGWDYDGGYYAMDYWGQGTSVTVSS VL: DIVMSQSPSSLAVSVGEKVTMSCKSSQSLLYSDNQKNYLAWYQQKPGQSPKLLIYWASTRESGVPDRFTGSGSGTDFTLTISSVKAEDLAVYYCQQYYTYPYTFGGGTKLEIK ... 265000

Next binder, please.
Any idea what its kon is? The binder is chimeric antibody ch23D7 (antibody, V domains shown) VH: QVQLQQPGSDLVRPGASVKLSCKASGYTFTRYWMHWVKQRPGHGLEWIGYIYPGSGTSNYDEKFKSKATLTVDTSSSTAYMQLSSLTSEDSAVYYCTREARYTMDYWGQGTSVTVSS VL: QIVLTQSPAIMSASPGEKVTMTCSASSSVSYIYWYQQKPGSSPGLLIYDTSNLASGVPVRFSGSGSGTSYSLTISRMEAEDAATYYCQQWSSFPPTFGAGTKLELK
130000
